- target.entity: T1, human alpha2-Antiplasmin (human, UniProt P08697 40-491)
- T1 construct: Bought (antibodies online, ABIN2544306); also called human A2AP; a2AP
- T1 sequence: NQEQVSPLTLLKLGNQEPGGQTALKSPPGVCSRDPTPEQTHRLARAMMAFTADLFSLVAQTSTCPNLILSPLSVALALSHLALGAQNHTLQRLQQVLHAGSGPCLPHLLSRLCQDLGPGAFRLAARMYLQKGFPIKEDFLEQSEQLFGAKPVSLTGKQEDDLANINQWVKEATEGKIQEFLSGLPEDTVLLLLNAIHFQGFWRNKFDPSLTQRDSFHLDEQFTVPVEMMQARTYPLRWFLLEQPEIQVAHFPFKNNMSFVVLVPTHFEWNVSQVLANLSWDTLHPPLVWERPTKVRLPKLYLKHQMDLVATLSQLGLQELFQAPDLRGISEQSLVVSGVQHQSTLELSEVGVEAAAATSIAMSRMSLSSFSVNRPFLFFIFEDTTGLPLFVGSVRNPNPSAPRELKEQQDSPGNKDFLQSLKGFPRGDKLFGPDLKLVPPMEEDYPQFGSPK
- assay.explanation: ELISA, coated antigen, 3rd exp.
Reported values of pEC50 for individual entries
// scale note: pEC50 = -log10(conc_M); give the bare number

>>> value_observed("TPP-14298 hIgG1 (antibody, V domains shown) VH: EVQLLESGGGLVQPGGSLRLSCAASGFTFDDYAMSWVRQAPGKGLEWVSAIGTGGGTYYADSVKGRFTISRDNSKNTLYLQMNSLRAEDTAVYYCASEYYDSSGYYHLDYWGQGTLVTVSS VL: QSVLTQPPSASGTPGQRVTISCTGSSSNIGATYDVHWYQQLPGTAPKLLIYSNNQRPSGVPDRFSGSKSGTSASLAISGLRSEDEADYYCAAWDWSLSGWVFGGGTKLTVLG")
7.24

--- query ---
Challenge: Fill blank: measured pEC50 of the binder TPP-14313 hIgG1 (antibody, V domains shown, Human IgG1 lambda) VH: EVQLLESGGGLVQPGGSLRLSCAASGFTFDDYAMSWVRQAPGKGLEWVSAIGTGGGTYYADSVKGRFTISRDNSKNTLYLQMNSLRAEDTAVYYCAREYYDSSGYYHLVYWGQGTLVTVSS VL: QSVLTQPPSASGTPGQRVTISCTGSSSNIGATYDVHWYQQLPGTAPKLLIYSNNQRPSGVPDRFSGSKSGTSASLAISGLRSEDEADYYCAAWDWSLSGWVFGGGTKLTVL is ____.
Response given: 7.47
